The origin of these recorded values is PubChem BioAssay (EPA / NIEHS).

assay: CEETOX_H295R_CORTISOL: CeeTox H295R High-throughput Steroidogenesis Assay for Cortisol (AID 2283438); conditions: actives raise or lower the signal;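 further: cortisol secreted into medium quantified by LC-MS/MS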
Active and inactive are the calls of the source. How the source made its calls: active means hit-call score of the fitted dose curve at least 0.9, where 1 is the maximum; inactive means score below 0.9.
API: response.call in y for active, n for inactive

                               query_smiles  group_label
0             Nc1ccc2c(c1)C(=O)c1ccccc1C2=O            n
1  Oc1ccc2c(c1)OC[C@@H](N1CCC(O)(c3ccc(F)cc3)CC1)[C@H]2O            n
2  CN1CCN(Cc2cc(-c3ccc4[nH]c(=O)oc4c3)co2)[C@@H](c2ccc(F)cc2)C1            n
3       Cc1cccc(Nc2cc(Cl)nc(SCC(=O)O)n2)c1C            n
4                       c1cc(-c2ccncc2)ccn1            n
5  Cc1nc(C)nc(N2C[C@@H](C)N(c3ccnc([C@@H](C)O)n3)[C@@H](C)C2)n1            n

Now consider a different molecule.
Input: State the result this test recorded for COc1ccc(C)cc1N .
Output: y
